- Tested target: human Fpn-GFP fusion (Homo sapiens, UniProt Q9NP59)
- Construct: expressed in transfected cells; host or cells: HEK-293 cell line #354 (derivative of HEK-293 Tet-ON Advanced, Clontech)
- Experimental details: Inhibition of ferroportin mediated iron export activity in an iron response assay (BLAzer)
- Assay type: cell-based
- Condition info: average of multiple measurements; HEK-293 cell line #354; read-out: BLAzer EC50
Provide the reported pEC50 of each item.
Answers are plain numbers, as −log10 of the molar value.

Below, each entry is followed by its recorded pEC50 result.
O=C(NCc1ncccc1F)c1nc(CCNCc2nc3ccccc3[nH]2)sc1Cl	6.14
O=C(NCc1ccccc1S(=O)(=O)N1CCOCC1)c1csc(CCNCc2nc3ccccc3[nH]2)n1	5.22
N#Cc1ccc(CNC(=O)c2csc(CCNCc3nc4ccccc4[nH]3)n2)cn1	4.98

Report pEC50 for every entry below.
1. O=C(NCc1ncccc1F)c1cncc(C2CN(CCc3nc4c(F)cccc4[nH]3)C2)c1
2. O=C(NCc1ncccc1Cl)c1csc(CCNCc2nc3ccccc3[nH]2)n1
3. O=C(c1csc(CCNCc2nc3ccccc3[nH]2)n1)N1CCc2ccccc2C1

Output line:
5.20
6.12
5.65

* * *

- Tested target: ferroportin (Fpn) (Mus musculus, UniProt Q9JHI9)
- Construct: host or cells: J774 mouse macrophage cell line, Fe(III)-NTA induced
- Sequence (Q9JHI9 1-570): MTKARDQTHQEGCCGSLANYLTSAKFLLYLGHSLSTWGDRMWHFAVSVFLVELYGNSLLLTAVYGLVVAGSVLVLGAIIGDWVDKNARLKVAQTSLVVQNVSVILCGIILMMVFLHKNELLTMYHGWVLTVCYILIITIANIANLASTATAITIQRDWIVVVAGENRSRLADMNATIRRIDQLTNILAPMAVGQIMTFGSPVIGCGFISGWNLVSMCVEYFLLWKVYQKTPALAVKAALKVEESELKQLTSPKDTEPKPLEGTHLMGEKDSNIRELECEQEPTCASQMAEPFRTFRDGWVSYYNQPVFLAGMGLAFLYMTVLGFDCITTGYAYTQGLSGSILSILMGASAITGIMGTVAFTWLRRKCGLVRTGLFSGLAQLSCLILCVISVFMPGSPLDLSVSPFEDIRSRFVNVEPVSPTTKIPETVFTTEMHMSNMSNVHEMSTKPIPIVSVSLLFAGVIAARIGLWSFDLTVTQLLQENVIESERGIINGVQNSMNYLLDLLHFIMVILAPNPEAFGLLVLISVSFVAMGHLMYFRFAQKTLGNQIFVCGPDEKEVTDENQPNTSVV
- Experimental details: Hepcidin Internalization Assay (J774)
- Type: cell-based
- Condition info: average of multiple measurements; inhibition of TMR-hepcidin (25 nM) internalization into J774 cells; read-out: J774 IC50
- Source text: This cellular assay allows quantification of the binding of hepcidin to ferroportin (Fpn) through microscopic detection of internalization of a fluorescently labeled hepcidin into J774 cells. […] Therefore, microscopic detection of ceH associated TMR fluorescence is a measure of hepcidin binding to Fpn and internalization of hepcidin and Fpn. If TMR-hepcidin is prevented from binding to Fpn, cellular TMR fluorescence remains low (Dürrenberger et al, 2013). […]
Quantity name: pIC50
One number for each entry, as −log10 of the molar value.

Below, each entry is followed by its recorded pIC50 result.
O=C(NCc1ncccc1F)[C@@H]1CCN(CCNCc2nc3ccccc3[nH]2)C1 [compound 202]	5.30
O=C(NCc1ncccc1F)c1cccc(CCNCc2nc3ccccc3[nH]2)n1 [Example 133]	5.34
O=C(NCc1ncco1)c1csc(CCNCc2nc3ccccc3[nH]2)n1 [Example 85]	7.54
O=C(CC(=O)NCc1ncccc1F)NCCNCc1nc2ccccc2[nH]1 [compound 149]	5.20
O=C(NCc1ncccc1F)c1coc(C2CN(CCc3nc4c(F)cccc4[nH]3)C2)n1 [Example 239]	7.44

Report pIC50 for every entry below.
1. Cn1cc(CNC(=O)c2csc(CCNCc3nc4ccccc4[nH]3)n2)cn1 [Example 91]
2. CC(=O)N(CCc1nc(C(=O)NCc2ccccc2)cs1)Cc1nccn1C [Example 4]
3. O=C(NCc1ncccc1F)c1cnn(CCNCCc2nc3ccccc3[nH]2)c1 [Example 111]

Output line:
5.68
4.81
7.46

* * *

- Tested target: human Fpn (Homo sapiens)
- Construct: FLAG (C); made in house; host or cells: Pichia pastoris
- Sequence (Q9NP59 1-571): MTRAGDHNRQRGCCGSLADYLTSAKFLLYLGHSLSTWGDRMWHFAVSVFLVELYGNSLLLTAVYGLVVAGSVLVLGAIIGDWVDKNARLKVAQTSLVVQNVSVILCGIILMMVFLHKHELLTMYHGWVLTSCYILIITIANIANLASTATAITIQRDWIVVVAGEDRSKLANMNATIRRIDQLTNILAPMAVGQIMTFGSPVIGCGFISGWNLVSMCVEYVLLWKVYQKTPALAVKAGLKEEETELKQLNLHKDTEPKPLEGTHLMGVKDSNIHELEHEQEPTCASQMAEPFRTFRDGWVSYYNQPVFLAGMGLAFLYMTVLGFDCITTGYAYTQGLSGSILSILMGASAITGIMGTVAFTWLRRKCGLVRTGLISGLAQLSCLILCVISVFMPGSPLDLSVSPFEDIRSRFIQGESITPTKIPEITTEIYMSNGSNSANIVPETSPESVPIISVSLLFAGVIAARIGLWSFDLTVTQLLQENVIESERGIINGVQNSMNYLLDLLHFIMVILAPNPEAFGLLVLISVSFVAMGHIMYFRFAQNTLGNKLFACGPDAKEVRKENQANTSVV
- Experimental details: Biophysical Ferroportin-Hepcidin Binding Assay (fluorescence polarization)
- Condition info: average of multiple measurements; 1 μM human Fpn, 20 nM TMR-hepcidin; read-out: FP IC50
- Description: This biophysical assay was developed to confirm inhibition of hepcidin binding to ferroportin (Fpn) more directly. Incubation of TMR-hepcidin with purified human Fpn isolated from Pichia pastoris yeast cells expressing human Fpn with a C-terminal FLAG affinity tag (Bonaccorsi di Patti, 2014) leads to increased fluorescence polarization (FP) of the TMR-hepcidin ligand. […]
pIC50: −log10 of the molar value.
Decide using pIC50: a value greater than or equal to 6 is criterion met, a smaller one is criterion not met.

O=C(NCc1ncccc1Cl)c1coc(CCNCc2nc3ccccc3[nH]2)n1 [Example 141]	criterion met

Input line: Would you say CN(C)C(=O)c1csc(CCNCc2nc3ccccc3[nH]2)n1 [Example 22] shows pIC50 at minimum 6?
Output line: criterion not met

Input line: Would you say O=C(NCc1ncccc1F)c1csc(CCNCCc2nc3cc(F)ccc3[nH]2)n1 [Example 120] shows pIC50 at minimum 6?
Output line: criterion met

Input line: Would you say O=C(NCc1ncccc1F)c1csc(CCNCCc2nc3c(F)cccc3[nH]2)n1 [Example 243] shows pIC50 at minimum 6?
Output line: criterion met

Input line: Would you say O=C(NCc1ncccc1F)c1nc(CCNCc2nc3ccccc3[nH]2)sc1Cl [Example 151] shows pIC50 at minimum 6?
Output line: criterion met

Input line: Would you say CC1(c2nc(C(=O)NCc3ncccc3F)cs2)CN(CCc2nc3ccccc3[nH]2)C1 [Example 212] shows pIC50 at minimum 6?
Output line: criterion not met

Input line: Would you say O=C(NCc1ccccc1)c1csc(CCNCc2nc3cc(OC(F)(F)F)ccc3[nH]2)n1 [Example 62] shows pIC50 at minimum 6?
Output line: criterion met

Input line: Would you say CN(CCc1nc2ccccc2[nH]1)CCc1nc(C(=O)NCc2ncccc2F)co1 [Example 223] shows pIC50 at minimum 6?
Output line: criterion not met

Input line: Would you say Cc1ccc(CNC(=O)c2csc(CCNCc3nc4ccccc4[nH]3)n2)nc1 [Example 97] shows pIC50 at minimum 6?
Output line: criterion not met

Input line: Would you say O=C1N[C@@H](CCN2CCCc3nc4ccccc4n3C2)C(=O)N1CCc1ncccc1F [Example 240] shows pIC50 at minimum 6?
Output line: criterion not met

* * *

- Tested target: ferroportin (Fpn) (Mus musculus)
- Construct: host or cells: J774 mouse macrophage cell line, Fe(III)-NTA induced
- Experimental details: Hepcidin Internalization Assay (J774)
- Type: cell-based
- Condition info: average of multiple measurements; inhibition of TMR-hepcidin (25 nM) internalization into J774 cells; read-out: J774 IC50
Class definitions on IC50: lower level = under 300 nM, middle level = from 300 nM up to 900 nM, upper level = 900 nM and over

Example cases with answers are listed next.
O=C(NCc1ncccn1)c1nc(CCNCc2nc3ccccc3[nH]2)sc1Cl	upper level
O=C(NCc1ncccc1F)c1cncc(CCNCc2nc3ccccc3[nH]2)c1	middle level
O=C(NCc1ncccc1F)[C@@H]1CCN(CCNCc2nc3ccccc3[nH]2)C1 [compound 204]	upper level
O=C(NCc1cccnn1)c1coc(C2CN(CCc3nc4c(F)cccc4[nH]3)C2)n1	middle level
O=C(NCc1ncccc1F)c1csc(CCNCCc2nc3cc(F)ccc3[nH]2)n1	lower level

Input line: Place this compound in its band: O=C(NCc1ccccn1)c1coc(CCNCCc2nc3c(F)cccc3[nH]2)n1
Output line: lower level

Input line: Place this compound in its band: COc1ccc(CNC(=O)c2csc(CCNCc3nc4ccccc4[nH]3)n2)nc1
Output line: middle level

Input line: Place this compound in its band: Cc1ccc(CNC(=O)c2csc(CCNCc3nc4ccccc4[nH]3)n2)nc1
Output line: lower level
